Origin of measurements: ChEMBL document CHEMBL1130574

SYSTEM: UniProt:P19327
Sequence (P19327 whole entry): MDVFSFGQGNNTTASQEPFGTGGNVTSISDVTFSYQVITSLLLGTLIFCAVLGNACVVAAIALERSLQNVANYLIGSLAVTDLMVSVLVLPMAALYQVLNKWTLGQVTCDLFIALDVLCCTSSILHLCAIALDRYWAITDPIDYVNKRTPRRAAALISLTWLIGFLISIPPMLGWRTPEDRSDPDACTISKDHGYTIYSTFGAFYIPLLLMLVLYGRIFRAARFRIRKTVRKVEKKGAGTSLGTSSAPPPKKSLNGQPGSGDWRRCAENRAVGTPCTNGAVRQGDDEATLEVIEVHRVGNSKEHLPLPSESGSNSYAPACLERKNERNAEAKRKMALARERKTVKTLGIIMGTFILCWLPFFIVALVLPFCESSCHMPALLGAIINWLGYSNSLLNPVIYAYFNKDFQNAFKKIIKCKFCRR
pKi: −log10 of the molar value.
MEASUREMENT_NAME: pKi

P = O=C(c1ccc(F)cc1)C1CCN(CCn2c(=O)sc3cc(CCCCN4CCOCC4)ccc32)CC1
Q = COc1ccccc1N1CCN(CCc2ccc3c(c2)sc(=O)n3CCN2CCC(C(=O)c3ccc(F)cc3)CC2)CC1
Min pKi? P | Q In your reply, give the label of the chosen option. Q
